All values here come from PubChem BioAssay (NCI).

System: IGROV1 ovarian
Test: NCI-60 one-dose screen, 48 h (100 = growth as untreated, 0 = no growth, -100 = all killed)
Conditions: 10 µM
This is part of a sample that, as a whole, favours compounds with a hit. Of some 83,000 tested, about 20% had one in any assay. Starred links: 1 amine or outer side, 2 acyl side, 3 side chain; linkers in the order of their positions; H or OH if unused. Positions of bridges follow the written chain, without caps; N, C: chain ends. Non-standard residues stand in square brackets, D forms with d. Residues, ends and D or L forms follow the SMILES beside them. Chains are numbered I, II in the order given. Actinocin(9to1) = Cc1c2oc3c(C)ccc(C(=O)[*:1])c3nc-2c(C(=O)[*:2])c(N)c1=O; aThr = C[C@H](O)[C@H](N)C(=O)O; NMeV = CN[C@H](C(=O)O)C(C)C; Sar = CNCC(=O)O
measurement_name: growth (%)
One number for each entry, in %.

Lab note: each molecule below needs its growth filled in.
1. CN1CCN(c2ccc3nc(-c4ccc5nc(-c6ccc(O)cc6)[nH]c5c4)[nH]c3c2)CC1
2. BrC/C=C/C[P+](c1ccccc1)(c1ccccc1)c1ccccc1
3. Nc1ccc2cc(Br)c3ccccc3c2c1
4. CCCCCCCCCCCCCCCCCN
5. COc1cc(C(C)(C)C)cc(OC)c1C(O)(c1c(OC)cc(C(C)(C)C)cc1OC)c1c(OC)cc(C(C)(C)C)cc1OC
6. Cc1c2oc3c(C)ccc(C(=O)N[C@@H]4C(=O)N[C@H](C(C)C)C(=O)N5CCC[C@H]5C(=O)N(C)CC(=O)N(C)[C@@H](C(C)C)C(=O)O[C@H]4C)c3nc-2c(C(=O)N[C@@H]2C(=O)N[C@H](C(C)C)C(=O)N3CCC[C@H]3C(=O)N(C)CC(=O)N(C)[C@@H](C(C)C)C(=O)O[C@H]2C)c(N)c1=O (I: [aThr][dV]P[Sar][NMeV] / II: [aThr][dV]P[Sar][NMeV]; ester I:1-I:C, II:1-II:C; linker I:N-II:N via Actinocin(9to1))
7. CN(C)CCC(=O)c1c[nH]c2ccccc12

Result:
112
83.8
82.2
107
2.83
-27.7
106

Q: For the record O=C(/C(=C/c1ccccc1)CBr)c1ccccc1 , what value of growth is listed for IGROV1 ovarian?
Result: 90.9

----------
System: NCI-H23 lung
Assay: NCI-60 one-dose screen, 48 h
Settings: 10 µM
About 83,000 compounds went through this panel and 20% of them were active in at least one assay; those are over-represented in the sample as a whole. Activity calls are given as the source filed them. Rule for the calls: active = growth percent below 10; inactive = the rest.
// classify into YES for active, NO for inactive

Study these solved cases before continuing.
compound=BrC/C=C/C[P+](c1ccccc1)(c1ccccc1)c1ccccc1 system_name="NCI-H23 lung" class=NO
compound=COc1cc(C(C)(C)C)cc(OC)c1C(O)(c1c(OC)cc(C(C)(C)C)cc1OC)c1c(OC)cc(C(C)(C)C)cc1OC system_name="NCI-H23 lung" class=YES
compound=CN1CCN(c2ccc3nc(-c4ccc5nc(-c6ccc(O)cc6)[nH]c5c4)[nH]c3c2)CC1 system_name="NCI-H23 lung" class=NO
compound=Cc1cc(NCCCN(C)C)c2ccc3c(ccc4c(NCCCN(C)C)cc(C)nc43)c2n1 system_name="NCI-H23 lung" class=YES

Consider the additional compound presented here.
Q: Per the assay record, what outcome was assigned to CSc1ccc2c(c1)C(N1CCN(C)CC1)Cc1ccccc1S2 (stereo not given) ?
Result: NO

----------
System: UO-31 renal
Assay: NCI-60 one-dose screen, 48 h
Details: 10 µM
Compounds without any hit were thinned out: in the full panel of roughly 83,000, 20% have a hit. Active and inactive are the calls of the source. The calls were made as follows: active = growth percent below 10; inactive = the rest.
// classify into yes = active, no = inactive

Study these solved cases before continuing.
compound=Nc1ccc2cc(Br)c3ccccc3c2c1 class=no
compound=CN1CCN(c2ccc3nc(-c4ccc5nc(-c6ccc(O)cc6)[nH]c5c4)[nH]c3c2)CC1 class=no
compound="CSc1ccc2c(c1)C(N1CCN(C)CC1)Cc1ccccc1S2 (configuration not stated)" class=no
compound=Cc1cc(NCCCN(C)C)c2ccc3c(ccc4c(NCCCN(C)C)cc(C)nc43)c2n1 class=yes
compound=BrC/C=C/C[P+](c1ccccc1)(c1ccccc1)c1ccccc1 class=no
compound=CCCCCCCCCCCCCCCCCN class=no

Consider the additional compound presented here.
Q: Per the assay record, what outcome was assigned to S=c1[nH]nc(Cc2ccccc2)c(=S)[nH]1 ?
Result: no

----------
Test system: 786-0 renal
Experiment: NCI-60 one-dose screen, 48 h (100 = growth as untreated, 0 = no growth, -100 = all killed)
Settings: 10 µM
Compounds without any hit were thinned out: in the full panel of roughly 83,000, 20% have a hit.
Exercise: for every item that follows, state its recorded growth.
Give bare numbers, in %.

Example results:
chemical_smiles=CN1CCN(c2ccc3nc(-c4ccc5nc(-c6ccc(O)cc6)[nH]c5c4)[nH]c3c2)CC1 recorded_value=87.2
chemical_smiles=S=c1[nH]nc(Cc2ccccc2)c(=S)[nH]1 recorded_value=106

Shift focus to the following entry.
Q: growth for Cc1cnc(/C=N\NC(N)=S)c2cccc(N)c12 ?
Result: 6.81

----------
Tested on: MOLT-4 leukemia
Experiment: NCI-60 one-dose screen, 48 h
Details: 10 µM
About 83,000 compounds went through this panel and 20% of them were active in at least one assay; those are over-represented in the sample as a whole. The source made the active and inactive calls. Rule for the calls: active = growth percent below 10; inactive = the rest. Starred links: 1 amine or outer side, 2 acyl side, 3 side chain; linkers in the order of their positions; H or OH if unused. Positions of bridges follow the written chain, without caps; N, C: chain ends. Non-standard residues stand in square brackets, D forms with d. Residues, ends and D or L forms follow the SMILES beside them. Chains are numbered I, II in the order given. Actinocin(9to1) = Cc1c2oc3c(C)ccc(C(=O)[*:1])c3nc-2c(C(=O)[*:2])c(N)c1=O; aThr = C[C@H](O)[C@H](N)C(=O)O; NMeV = CN[C@H](C(=O)O)C(C)C; Sar = CNCC(=O)O
// classify into y for active, n for inactive

molecule=Cc1cnc(/C=N\NC(N)=S)c2cccc(N)c12 class=y
molecule=S=c1[nH]nc(Cc2ccccc2)c(=S)[nH]1 class=n
molecule=Nc1ccc2cc(Br)c3ccccc3c2c1 class=n
molecule="CSc1ccc2c(c1)C(N1CCN(C)CC1)Cc1ccccc1S2 (configuration not stated)" class=y
molecule="Cc1c2oc3c(C)ccc(C(=O)N[C@@H]4C(=O)N[C@H](C(C)C)C(=O)N5CCC[C@H]5C(=O)N(C)CC(=O)N(C)[C@@H](C(C)C)C(=O)O[C@H]4C)c3nc-2c(C(=O)N[C@@H]2C(=O)N[C@H](C(C)C)C(=O)N3CCC[C@H]3C(=O)N(C)CC(=O)N(C)[C@@H](C(C)C)C(=O)O[C@H]2C)c(N)c1=O (I: [aThr][dV]P[Sar][NMeV] / II: [aThr][dV]P[Sar][NMeV]; ester I:1-I:C, II:1-II:C; linker I:N-II:N via Actinocin(9to1))" class=y

Q: Per the assay record, what outcome was assigned to CCCCCCCCCCCCCCCCCN ?
Result: n

Q: Now give it for O=C(/C(=C/c1ccccc1)CBr)c1ccccc1 too.
Result: y

----------
Test system: NCI-H226 lung
Assay: NCI-60 one-dose screen, 48 h
Conditions: 10 µM
This is part of a sample that, as a whole, favours compounds with a hit. Of some 83,000 tested, about 20% had one in any assay. Activity calls are given as the source filed them. How the source made its calls: active means growth percent below 10; inactive means the rest.
// classify into active, inactive

chemical_smiles=COc1cc(C(C)(C)C)cc(OC)c1C(O)(c1c(OC)cc(C(C)(C)C)cc1OC)c1c(OC)cc(C(C)(C)C)cc1OC system_name="NCI-H226 lung" class=active
chemical_smiles=N#C/C(=C1C=C/C(=N\O)C(Cl)=C\1)c1ccccc1 system_name="NCI-H226 lung" class=inactive

Consider the additional molecule presented here.
Q: Per the assay record, what outcome was assigned to Cc1cc(NCCCN(C)C)c2ccc3c(ccc4c(NCCCN(C)C)cc(C)nc43)c2n1 ?
Result: active

----------
Exercise: for every item that follows, state its recorded growth.
Tested on: SW-620 colon
Experiment: NCI-60 one-dose screen, 48 h (100 = growth as untreated, 0 = no growth, -100 = all killed)
Conditions: 10 µM
About 83,000 compounds went through this panel and 20% of them were active in at least one assay; those are over-represented in the sample as a whole.
Give bare numbers, in %.

chemical_smiles=Cc1cc(NCCCN(C)C)c2ccc3c(ccc4c(NCCCN(C)C)cc(C)nc43)c2n1 system_name="SW-620 colon" measurement_name=growth recorded_value=-99.3

Lab note: each compound below needs its growth filled in.
1. S=c1[nH]nc(Cc2ccccc2)c(=S)[nH]1
2. CN(C)CCC(=O)c1c[nH]c2ccccc12

Result:
1: 109; 2: 111

Lab note: each compound below needs its growth filled in.
1. COc1cc(C(C)(C)C)cc(OC)c1C(O)(c1c(OC)cc(C(C)(C)C)cc1OC)c1c(OC)cc(C(C)(C)C)cc1OC
2. CN1CCN(c2ccc3nc(-c4ccc5nc(-c6ccc(O)cc6)[nH]c5c4)[nH]c3c2)CC1
3. BrC/C=C/C[P+](c1ccccc1)(c1ccccc1)c1ccccc1

Result:
1: -79.8; 2: 87.1; 3: 32.3

Lab note: each compound below needs its growth filled in.
1. O=C(/C(=C/c1ccccc1)CBr)c1ccccc1
2. Cc1cnc(/C=N\NC(N)=S)c2cccc(N)c12

Result:
17.3
35
